Label scheme for solubility: lower than 60 mM is f, 60 mM and above is t.

compound=CCCC(=O)OCCOCCOCCOC(=O)CCC assigned_label=f
compound="CCOC(CC(C)O)OCC (stereo not drawn)" assigned_label=t
compound=O=C(OC1CCNCC1)c1ccccc1 assigned_label=f
compound=Nc1ccc2snnc2c1 assigned_label=f
compound=O=C(O)CCCNC(=O)c1ccccc1 assigned_label=t
compound=CC(=O)OCCCOC(C)=O assigned_label=t
compound=CCOCCOC(=O)CCCCC(=O)OCCOCC assigned_label=f
compound=CCOC(=O)N(CC)CC assigned_label=t
compound="CC1(C)CC(C(=O)O)C(C)(C)N1 (stereo not drawn)" assigned_label=t
compound="CCOC(C)C(=O)C=O (stereo not drawn)" assigned_label=t
compound=O=C(c1cccc2ccccc12)N(O)c1ccccc1 assigned_label=f
compound=CCC(CC)(C(N)=O)C(N)=O assigned_label=t
compound="NC(CO)C(=O)N[C@@H](CO)C(=O)O (stereo in doubt)" assigned_label=t
compound=CCCc1cc(F)ccc1O assigned_label=f
compound="NC(CC(=O)O)c1cccc2ccccc12 (stereo not drawn)" assigned_label=f
compound="COc1ccc(NCC(O)CO)cc1 (stereo not drawn)" assigned_label=t
compound=CCOC(OCC)C(Cl)(Cl)Cl assigned_label=f
compound=C[C@H]1NC(=O)[C@@H](C)NC1=O assigned_label=t
compound=Cc1cc(N)n(-c2ccccc2)n1 assigned_label=t
compound=Nc1ccc(C#Cc2ccc(N)cc2)cc1 assigned_label=f
compound=CCCC(Br)(CCC)C(N)=O assigned_label=f
compound=O=C(OCCCO)c1ccccc1 assigned_label=f
compound=Cn1cnc2nc(Cl)nc(Cl)c21 assigned_label=t
compound="COC1CCCC(C)O1 (stereo not drawn)" assigned_label=t
compound=O=S(=O)(O)c1ccc(/N=N/c2c(O)ccc3ccccc23)c2ccccc12 assigned_label=t
compound=O=C1OCc2ccc3ccccc3c21 assigned_label=f
compound=Cn1c(C(N)=O)c(C(N)=O)c2ccccc21 assigned_label=f

---

- test-conditions: 25 °C
Output schema: class label derived from solubility. Mapping: low = under 5 mM, medium = from 5 mM up to 40 mM, high = 40 mM and over

molecule=CCCCCCC(C(=O)O)C(=O)O assigned_label=medium
molecule="CCCCOC(=O)C(C)OC(=O)C(C)O (centres undefined)" assigned_label=high
molecule=O=C(O)Cc1cc(O)ccc1O assigned_label=high
molecule=O=P(Oc1ccccc1)(Oc1ccccc1)N1CCOCC1 assigned_label=medium
molecule=CCOc1ccc(N(C(C)=O)C(C)=O)cc1 assigned_label=medium
molecule=O=C(O)c1cccc(C(=O)O)c1[N+](=O)[O-] assigned_label=medium
molecule=CC(=O)CC(=O)c1ccccc1 assigned_label=low
molecule=N#CNC(N)=S assigned_label=high
molecule="CCOC(=S)SC(CC(=O)O)C(=O)O (centres undefined)" assigned_label=high
molecule=Oc1ccc(C2CCCCC2)cc1 assigned_label=low
molecule=O=C(O)C(=O)Nc1ccc(Cl)cc1Cl assigned_label=medium
molecule=CCCCCCNC(=O)c1cccnc1 assigned_label=low
molecule=NC(=O)OC(CCl)CCl assigned_label=high
molecule=CC(=O)NC(=O)NC(C)=O assigned_label=high
molecule=C=CC1=C(C)C(=Cc2[nH]c(Cc3[nH]c(C=C4NC(=O)C(C)=C4C=C)c(C)c3CCC(=O)O)c(CCC(=O)O)c2C)NC1=O assigned_label=low
molecule=CCCCCCCCCOC(=O)c1cccnc1 assigned_label=low
molecule="CC(=O)OCC(C)OC(C)=O (centres undefined)" assigned_label=high
molecule="CCCC[C@H](NC(C)=O)C(=O)O (racemic)" assigned_label=high
molecule=O=c1ccc(Br)ccc1O assigned_label=low
molecule=CC(=O)Oc1ccccc1/C=C/C(=O)O assigned_label=low
molecule=O=C(O)c1ccc2ccccc2n1 assigned_label=high
molecule="CCC(C)CC(O)CC (centres undefined)" assigned_label=medium
molecule=O=C(O)CC[Se][Se]CCC(=O)O assigned_label=medium
molecule=CCOc1nc(OCC)nc(OCC)n1 assigned_label=medium

Source of measurements: the OPERA property sets (Mansouri et al. 2018)
